Measured EC50, listed per entry.
biological target: Free fatty acid receptor 1 (Homo sapiens); experiment: Positive allosteric modulation of human GPR40 expressed in HEK293 cells; type: cell-based
Sequence (O14842 whole entry): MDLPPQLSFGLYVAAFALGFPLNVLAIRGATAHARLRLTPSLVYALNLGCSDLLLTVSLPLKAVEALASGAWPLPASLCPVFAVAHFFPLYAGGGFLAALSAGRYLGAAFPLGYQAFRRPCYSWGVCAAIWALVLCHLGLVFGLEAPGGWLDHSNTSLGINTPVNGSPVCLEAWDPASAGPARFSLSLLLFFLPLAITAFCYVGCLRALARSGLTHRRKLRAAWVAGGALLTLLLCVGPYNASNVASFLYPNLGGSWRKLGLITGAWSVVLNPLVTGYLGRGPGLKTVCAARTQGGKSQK
Please append the unit to your numeric answer.

COc1ccc(F)c(N2CCC(Oc3ccc(N4CCC[C@H]4CC(=O)O)cc3)CC2)c1: 4100 nM

Task: State its EC50 for this compound: `COc1ccc(F)c(N2CCC(Oc3ccc(N4CCC[C@@H]4CC(=O)O)cc3)CC2)c1`
Output: 1400 nM

* * *

experiment: Volume of distribution at steady state in rat at 3 mg/kg, iv; assay type: ADME, organism-based; details: in vivo, read-out: Vdss
readout.name: Vd (L/kg)
State just the number; it will be interpreted in L/kg.

Task: State its Vd for this molecule: `COCCCO[C@H]1CN(c2ccc(O[C@@H]3CCN(c4cc(OC)ncc4Cl)C[C@H]3C)cc2)[C@@H](CC(=O)O)[C@@H]1C`
Output: 1.1

* * *

assay: AUC (0 to 24 hrs) in rat at 240 mg/kg qd; type: ADME, organism-based; parameters: dose 240 mg/kg; settings: in vivo
readout.name: AUC (µM·h)
State just the number; it will be interpreted in µM·h.

Task: State its AUC for this compound: `COc1ccc(F)c(-c2ccc(Cc3ccc(N4N=C(C(F)(F)F)[C@@H](C)[C@@H]4CC(=O)O)cc3)c(C)c2)c1`
Output: 1080

* * *

experiment: Oral bioavailability in mouse at 1 mg/kg; format: ADME, organism-based; conditions: in vivo
readout.name: bioavailability (%)
State just the number; it will be interpreted in %.

Task: State its bioavailability for this compound: `COCCCO[C@H]1CN(c2ccc(O[C@@H]3CCN(c4cc(OC)ncc4Cl)C[C@H]3C)cc2)[C@@H](CC(=O)O)[C@@H]1C`
Output: 100

* * *

assay: AUC (0 to 24 hrs) in rat at 60 mg/kg qd; type: ADME, organism-based; set-up: dose 60 mg/kg; conditions: in vivo
readout.name: AUC (µM·h)
State just the number; it will be interpreted in µM·h.

Task: State its AUC for this molecule: `COCCCO[C@H]1CN(c2ccc(O[C@@H]3CCN(c4cc(OC)ncc4Cl)C[C@H]3C)cc2)[C@@H](CC(=O)O)[C@@H]1C`
Output: 534

* * *

assay: Half life in rat at 3 mg/kg, iv; assay type: ADME, organism-based; conditions: in vivo
readout.name: half-life (h)
State just the number; it will be interpreted in h.

Task: State its half-life for this compound: `COCCCO[C@H]1CN(c2ccc(O[C@@H]3CCN(c4cc(OC)ncc4Cl)C[C@H]3C)cc2)[C@@H](CC(=O)O)[C@@H]1C`
Output: 3.6

* * *

test: Cmax in rat at 60 mg/kg qd; format: ADME, organism-based; set-up: dose 60 mg/kg; conditions: in vivo
readout.name: Cmax

Task: State its Cmax for this compound: `COCCCO[C@H]1CN(c2ccc(O[C@@H]3CCN(c4cc(OC)ncc4Cl)C[C@H]3C)cc2)[C@@H](CC(=O)O)[C@@H]1C`
Output: 49 µM

* * *

assay: Oral bioavailability in rat at 1 mg/kg; type: ADME, organism-based; conditions: in vivo
readout.name: bioavailability (%)
State just the number; it will be interpreted in %.

Task: State its bioavailability for this compound: `COCCCO[C@H]1CN(c2ccc(O[C@@H]3CCN(c4cc(OC)ncc4Cl)C[C@H]3C)cc2)[C@@H](CC(=O)O)[C@@H]1C`
Output: 100

* * *

test: Cmax in rat at 12 mg/kg qd; format: ADME, organism-based; parameters: dose 12 mg/kg; details: in vivo
readout.name: Cmax (µM)
State just the number; it will be interpreted in µM.

Task: State its Cmax for this molecule: `COCCCO[C@H]1CN(c2ccc(O[C@@H]3CCN(c4cc(OC)ncc4Cl)C[C@H]3C)cc2)[C@@H](CC(=O)O)[C@@H]1C`
Output: 11

* * *

assay: AUC (0 to 24 hrs) in rat at 160 mg/kg bid; format: ADME, organism-based; set-up: dose 160 mg/kg; settings: in vivo
readout.name: AUC (µM·h)
State just the number; it will be interpreted in µM·h.

Task: State its AUC for this compound: `COc1cc(N2CC[C@@H](Oc3ccc(N4N=C(C(F)(F)F)[C@@H](C)[C@@H]4CC(=O)O)cc3)[C@H](C)C2)c(Cl)cn1`
Output: 1100

* * *

experiment: AUC (0 to 24 hrs) in rat at 150 mg/kg, po bid; assay type: ADME, organism-based; design: dose 150 mg/kg, route po; conditions: in vivo
readout.name: AUC (µM·h)
State just the number; it will be interpreted in µM·h.

Task: State its AUC for this molecule: `COc1cc(N2CC[C@@H](Oc3ccc(N4N=C(C(F)(F)F)[C@@H](C)[C@@H]4CC(=O)O)cc3)[C@H](C)C2)c(Cl)cn1`
Output: 557

* * *

experiment: Volume of distribution at steady state in mouse at 3 mg/kg, iv; format: ADME, organism-based; conditions: in vivo, read-out: Vdss
readout.name: Vd (L/kg)
State just the number; it will be interpreted in L/kg.

Task: State its Vd for this compound: `COCCCO[C@H]1CN(c2ccc(O[C@@H]3CCN(c4cc(OC)ncc4Cl)C[C@H]3C)cc2)[C@@H](CC(=O)O)[C@@H]1C`
Output: 1.4

* * *

Measured solubility, listed per entry.
assay: Solubility of the compound in FaSSIF at pH 6.5; assay type: ADME
State just the number; it will be interpreted in µg/mL.

COCCCO[C@H]1CN(c2ccc(O[C@@H]3CCN(c4cc(OC)ncc4Cl)C[C@H]3C)cc2)[C@@H](CC(=O)O)[C@@H]1C: 239

Task: State its solubility for this molecule: `COc1cc(N2CC[C@@H](Oc3ccc(N4N=C(C(F)(F)F)[C@@H](C)[C@@H]4CC(=O)O)cc3)[C@H](C)C2)c(Cl)cn1`
Output: 9

* * *

experiment: AUC (0 to 24 hrs) in rat at 800 mg/kg qd; format: ADME, organism-based; parameters: dose 800 mg/kg; settings: in vivo
readout.name: AUC (µM·h)
State just the number; it will be interpreted in µM·h.

Task: State its AUC for this compound: `COc1ccc(F)c(-c2ccc(Cc3ccc(N4N=C(C(F)(F)F)[C@@H](C)[C@@H]4CC(=O)O)cc3)c(C)c2)c1`
Output: 1430

* * *

experiment: Clearance in mouse at 3 mg/kg, iv; assay type: ADME, organism-based; details: in vivo
readout.name: clearance (L/h/kg)
State just the number; it will be interpreted in L/h/kg.

Task: State its clearance for this compound: `COCCCO[C@H]1CN(c2ccc(O[C@@H]3CCN(c4cc(OC)ncc4Cl)C[C@H]3C)cc2)[C@@H](CC(=O)O)[C@@H]1C`
Output: 0.474

* * *

assay: Metabolic stability in mouse liver microsome assessed as parent compound remaining after 10 mins; format: ADME; conditions: liver microsomes, read-out: Stability
Measured remaining at 10 min, listed per entry.
State just the number; it will be interpreted in %.

COCCCO[C@H]1CN(c2ccc(O[C@@H]3CCN(c4cc(OC)ncc4Cl)C[C@H]3C)cc2)[C@@H](CC(=O)O)[C@@H]1C: 79

Next molecule, remaining at 10 min to be filled in.
Task: State its remaining at 10 min for this molecule: `COc1cc(N2CC[C@@H](Oc3ccc(N4C[C@H](F)[C@@H](C)[C@@H]4CC(=O)O)cc3)[C@H](C)C2)c(Cl)cn1`
Output: 97

* * *

test: Cmax in rat at 80 mg/kg qd; assay type: ADME, organism-based; design: dose 80 mg/kg; details: in vivo
readout.name: Cmax (µM)
State just the number; it will be interpreted in µM.

Task: State its Cmax for this molecule: `COc1ccc(F)c(-c2ccc(Cc3ccc(N4N=C(C(F)(F)F)[C@@H](C)[C@@H]4CC(=O)O)cc3)c(C)c2)c1`
Output: 30

* * *

assay: Toxicity in rat assessed as NOAEL by measuring AUC (0 to 24 hrs) measured for 28 days; settings: in vivo, time 28 day
readout.name: AUC at […] (µM·h)
State just the number; it will be interpreted in µM·h.

COCCCO[C@H]1CN(c2ccc(O[C@@H]3CCN(c4cc(OC)ncc4Cl)C[C@H]3C)cc2)[C@@H](CC(=O)O)[C@@H]1C: 53

Next compound, AUC at […] to be filled in.
Task: State its AUC at […] for this compound: `COc1cc(N2CC[C@@H](Oc3ccc(N4N=C(C(F)(F)F)[C@@H](C)[C@@H]4CC(=O)O)cc3)[C@H](C)C2)c(Cl)cn1`
Output: 404

* * *

experiment: AUC (0-7hrs) in mouse at 1 mg/kg; format: ADME, organism-based; parameters: dose 1 mg/kg; details: in vivo
Measured AUC(0-t), listed per entry.
State just the number; it will be interpreted in µM·h.

Consider the following illustrative entries.
CCOc1ccc(F)c(N2CC[C@@H](Oc3ccc(N4C[C@H](OCCCOC)[C@@H](C)[C@@H]4CC(=O)O)cc3)[C@H](C)C2)c1: 2.9
CCOc1ccc(F)c(N2CC[C@@H](Oc3ccc(N4C[C@H](OC)[C@@H](C)[C@@H]4CC(=O)O)cc3)[C@H](C)C2)c1: 0.5

Next compound, AUC(0-t) to be filled in.
Task: State its AUC(0-t) for this compound: `COCCCO[C@H]1CN(c2ccc(O[C@@H]3CCN(c4cc(OC)ncc4Cl)C[C@H]3C)cc2)[C@@H](CC(=O)O)[C@@H]1C`
Output: 4.4
